Tested on: Helicobacter pylori
PROTOCOL DESCRIPTION: Antibacterial activity against metronidazole-resistant Helicobacter pylori isolate 1 after 72 hrs by agar dilution method
Format: functional
RECORDED CONDITIONS: isolate 1, 72 h
READOUT LABEL: MIC

{"columns": ["STRUCTURE", "READOUT LABEL", "EXPERIMENTAL RESULT"],
 "data": [
  ["O=C(O)c1ccc(NC(=O)c2cc3cccc(O)c3oc2=O)cc1", "MIC", "> 128 µg/mL"],
  ["COc1ccc2cc(C(=O)Nc3ccc(C(=O)O)cc3)c(=O)oc2c1", "MIC", "> 128 µg/mL"]
]}

Moving on to the next compound.
Summary for this compound, CCOC(=O)c1ccc(NC(=O)c2cc3cccc(O)c3oc2=O)cc1 : MIC is > 128 µg/mL
